The origin of these recorded values is PubChem BioAssay (NCI).

// growth lookup, one value per entry
Test system: MOLT-4 leukemia
Experiment: NCI-60 one-dose screen, 48 h (100 = growth as untreated, 0 = no growth, -100 = all killed)
Conditions: 10 µM unless noted
About 83,000 compounds went through this panel and 20% of them were active in at least one assay; those are over-represented in the sample as a whole.
Provide the reading as a plain figure in %.

Sample answers from the record:
compound: CCCCCC(=O)OCC(=O)O[C@@H]1C[C@]2(C(C)C)O[C@@]1(C)[C@@H]1CC[C@@H](C)[C@H]1[C@@H]2OC(=O)/C=C/c1ccccc1
unitInfo: %
growth: 72.1
--
compound: Fc1ccc(-c2nn(-c3ccccc3)cc2-c2nc3ccccc3o2)cc1
unitInfo: %
growth: 73.7
--
compound: Cc1ccc(-c2nc(/C=C3/C(=O)Nc4ccccc43)c3ccccn23)cc1
unitInfo: %
growth: 72.2

stdin: Quick check: growth of `Cc1cccc2c1NC(=O)C2(c1ccc(O)cc1)c1ccc(O)cc1` ?
stdout: 84.2

stdin: Quick check: growth of `CC1(C)CC[C@]2(c3nnc(-c4ccncc4)o3)CC[C@H]3C(=CC[C@H]4[C@@]3(C)CC[C@H]3C(C)(C)C(=O)CC[C@]43C)[C@@H]2C1` ?
stdout: 38.7

stdin: Quick check: growth of Nc1ncnc2c1N=C(c1ccc3c(c1)OCO3)CC(c1ccc([N+](=O)[O-])cc1)N2 (centres undefined) ?
stdout: 99.3

stdin: Quick check: growth of `COC1=CC(c2ccc[nH]2)=N/C1=C\c1[nH]c(C)c(C(=O)OCc2ccccc2)c1C` ?
stdout: -7.67

stdin: Quick check: growth of `CCOC(=O)C1=C(NC)OCC1=O` ?
stdout: 97.3

stdin: Quick check: growth of `Cc1ccc2c(n1)C(=O)c1[nH]c3ccccc3c1C2=O` ?
stdout: 35.1
